Numbers sourced from patent US20260217708A1.

Target: system Xc^− (Homo sapiens, UniProt Q9UPY5)
Sequence (Q9UPY5 1-501): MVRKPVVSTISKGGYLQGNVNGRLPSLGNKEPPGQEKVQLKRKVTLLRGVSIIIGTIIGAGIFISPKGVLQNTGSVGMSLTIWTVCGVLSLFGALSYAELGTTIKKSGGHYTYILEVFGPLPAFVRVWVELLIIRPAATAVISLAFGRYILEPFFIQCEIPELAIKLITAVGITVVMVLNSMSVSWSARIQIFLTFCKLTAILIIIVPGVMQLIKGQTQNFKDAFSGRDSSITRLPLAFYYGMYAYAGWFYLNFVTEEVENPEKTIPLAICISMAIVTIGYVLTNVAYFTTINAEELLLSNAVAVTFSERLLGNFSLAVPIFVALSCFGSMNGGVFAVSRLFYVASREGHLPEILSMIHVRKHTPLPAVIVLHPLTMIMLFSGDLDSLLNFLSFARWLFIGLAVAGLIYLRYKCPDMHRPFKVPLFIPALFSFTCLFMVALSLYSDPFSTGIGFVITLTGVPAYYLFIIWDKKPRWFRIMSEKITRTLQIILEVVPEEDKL
Sequence (P08195 1-529 partner): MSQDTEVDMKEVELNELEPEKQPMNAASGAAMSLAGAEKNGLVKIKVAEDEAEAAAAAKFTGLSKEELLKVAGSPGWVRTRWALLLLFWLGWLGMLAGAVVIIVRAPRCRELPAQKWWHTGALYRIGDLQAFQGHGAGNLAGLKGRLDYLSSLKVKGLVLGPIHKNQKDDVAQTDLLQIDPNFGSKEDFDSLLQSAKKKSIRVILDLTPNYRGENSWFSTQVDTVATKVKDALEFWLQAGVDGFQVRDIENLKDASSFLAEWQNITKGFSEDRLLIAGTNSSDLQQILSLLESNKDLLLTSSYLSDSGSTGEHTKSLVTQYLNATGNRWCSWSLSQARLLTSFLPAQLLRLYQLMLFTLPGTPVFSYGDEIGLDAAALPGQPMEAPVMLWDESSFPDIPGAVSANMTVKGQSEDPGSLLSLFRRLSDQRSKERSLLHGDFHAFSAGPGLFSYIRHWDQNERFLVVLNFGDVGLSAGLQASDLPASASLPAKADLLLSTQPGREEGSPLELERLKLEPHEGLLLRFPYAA
Assay: [^14C]L-Cystine uptake assay
Format: cell-based
Design: endogenous in cells; host or cells: H4 cells
Details: H4 cells, sodium-free HEPES buffer, 0.5 μM L-[14C]Cystine and 4.5 μM L-Cystine, 1 hour at 37° C.; read-out: pIC50 [^14C] L-Cystine uptake assay (converted)
Procedure: The effect of compounds of Formula (I) on the system Xc^− functionality was examined in two independent cell assays: (i) measurement of cystine-induced glutamate release; and (ii) measurement of [^14C]L-Cystine uptake. […] In this assay, the medium is devoid of sodium to prevent the transport of glutamate by sodium-dependent excitatory amino acid transporters (EAATs). […] After 1 hour at 37° C., plates were counted in a MicroBeta^2 microplate counter (PerkinElmer).
Readout: IC50

>>> value_observed("O=C(CN1C(=O)C(O)c2ncc(F)cc2-c2c(F)cc(F)cc21)Nc1ccc(Cl)c(F)c1 (single isomer, unassigned) [#317]")
"15.8 to 39.8 nM"
>>> value_observed("Cc1cc2c(c(F)n1)-c1cccnc1C(O)C(=O)N2CC(=O)Nc1ccc(Br)c(Cl)c1 (single isomer, unassigned) [#213]")
"15.8 to 39.8 nM"
>>> value_observed("Cc1cc2c(c(F)n1)-c1cccnc1C(C)C(=O)N2CC(=O)Nc1ccc(C2CC2)c(F)c1 (stereo not shown) [#135]")
"< 15.8 nM"
>>> value_observed("Cc1cc2c(c(F)n1)-c1cccnc1C(C)C(=O)N2CC(=O)Nc1ccc(C(F)(F)F)cc1 (stereo not shown) [#84]")
"< 15.8 nM"
>>> value_observed("COc1cc2c(cn1)-c1cccnc1C(C)C(=O)N2CC(=O)Nc1ccc(Cl)c(F)c1 (single isomer, unassigned) [#320]")
"15.8 to 39.8 nM"
>>> value_observed("CC1C(=O)N(CC(=O)Nc2ccc(Cl)c(F)c2)c2ccn(C(F)F)c(=O)c2-c2cccnc21 (stereo not shown) [#366]")
"39.8 to 100 nM"
>>> value_observed("Cc1cc2c(cn1)-c1cccnc1C(C)C(=O)N2CC(=O)Nc1ccc(C(F)(F)F)cc1 (stereo not shown) [#91]")
"15.8 to 39.8 nM"
>>> value_observed("Cc1cc2c(c(C#N)n1)-c1ncccc1CC(=O)N2CC(=O)Nc1ccc(C(F)(F)F)cc1 [#392]")
"15.8 to 39.8 nM"
>>> value_observed("Cc1cc2c(c(F)n1)-c1cccc(C#N)c1CC(=O)N2CC(=O)Nc1ccc(C(F)(F)F)cc1 [#88]")
"39.8 to 100 nM"
>>> value_observed("Cc1cc2c(cn1)-c1c(Cl)cccc1CC(=O)N2CC(=O)Nc1ccc(C(F)(F)F)cc1 [#32]")
"100 to 501 nM"
>>> value_observed("Cc1cc2c(c(Cl)n1)-c1cccnc1C(F)C(=O)N2CC(=O)Nc1ccc(C(F)(F)F)cc1 (single isomer, unassigned) [#188]")
"< 15.8 nM"
>>> value_observed("Cc1cc2c(c(F)n1)-c1ccnnc1C(C)C(=O)N2CC(=O)Nc1ccc(C(F)(F)F)cc1 (stereo not shown) [#172]")
"15.8 to 39.8 nM"
>>> value_observed("O=C(CN1C(=O)Cc2ncccc2-c2c1ccnc2Cl)Nc1ccc(C(F)(F)F)cc1 [#53]")
"39.8 to 100 nM"
>>> value_observed("CC1C(=O)N(CC(=O)Nc2ccc(Cl)c(F)c2)c2cc(C(F)F)ccc2-c2cccnc21 (stereo not shown) [#341]")
"39.8 to 100 nM"
>>> value_observed("Cc1cc2c(c(F)n1)-c1cccnc1C(C)C(=O)N2CC(=O)Nc1ccc2c(cnn2C)c1 (stereo not shown) [#129]")
"39.8 to 100 nM"
>>> value_observed("CC1C(=O)N(CC(=O)Nc2ccc(Cl)c(F)c2)c2cc(C#N)c(F)cc2-c2cccnc21 (single isomer, unassigned) [#394]")
"39.8 to 100 nM"
